Target Of Assay: BACE1 (Homo sapiens (Human), UniProt P56817)
Sequence (P56817 46-501): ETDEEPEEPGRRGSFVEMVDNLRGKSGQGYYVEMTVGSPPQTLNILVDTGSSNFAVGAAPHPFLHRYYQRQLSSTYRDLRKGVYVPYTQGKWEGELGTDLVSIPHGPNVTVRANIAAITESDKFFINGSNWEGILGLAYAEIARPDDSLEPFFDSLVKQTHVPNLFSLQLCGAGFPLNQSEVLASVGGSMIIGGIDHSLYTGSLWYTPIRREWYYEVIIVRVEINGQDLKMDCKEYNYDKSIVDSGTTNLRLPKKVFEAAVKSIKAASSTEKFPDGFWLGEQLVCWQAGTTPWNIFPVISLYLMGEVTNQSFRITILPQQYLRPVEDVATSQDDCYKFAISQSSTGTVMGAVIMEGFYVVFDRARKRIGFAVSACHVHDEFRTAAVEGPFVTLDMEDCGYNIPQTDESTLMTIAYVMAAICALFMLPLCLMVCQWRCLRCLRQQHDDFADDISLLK
Test Description: In vitro enzymatic BACE1 FRET assay
Type: biochemical
Protocol Conditions: read-out: IC50 IP (μM) BACE1 Enzyme
As shown below, each of these molecules has a reported IC50 value.
Entry rule: numbers only, all in µM.

CN(C)C(=O)[C@]12C[C@H]1[C@@](C)(c1cc(/C(F)=C/c3ccc(C#N)cc3)ccc1F)N=C(N)S2 [Example 186] :: 0.128
C#CCOc1cnc(/C(F)=C/c2ccc(F)c([C@@]3(C)N=C(N)S[C@@]4(C(=O)NCC(F)F)C[C@H]43)c2)cn1 [Example 302] :: 0.0019
CC(C)[C@@H]1COCCN1C(=O)[C@]12C[C@H]1[C@@](C)(c1cc(/C=C(\F)c3ccc(C#N)cn3)ccc1F)N=C(N)S2 [Example 322] :: 0.0021
C[C@]1(c2cc(/C=C(\F)c3cnc(C#N)cn3)ccc2F)N=C(N)S[C@@]2(C(=O)N3CCOCC3)C[C@H]21 [Example 200] :: 0.001
C[C@]1(c2cc(/C=C(\F)c3cnc(C#N)cn3)ccc2F)N=C(N)S[C@@]2(C(=O)N3CCCC3)C[C@H]21 [Example 204] :: 0.001

Item COC[C@]12C[C@H]1[C@@](C)(c1cc(/C=C(\F)c3ccc(C#N)cn3)ccc1F)N=C(N)S2 [Example 293] was tested on BACE1 (Homo sapiens (Human), UniProt P56817); the reported IC50 is 0.0165

Given the molecule COC[C@]12C[C@H]1[C@@](C)(c1cc(/C=C(\F)c3cnc(OCC(F)(F)F)cn3)ccc1F)N=C(N)S2 [Example 267] and test system BACE1 (Homo sapiens (Human), UniProt P56817), the measured IC50 is 0.112

The recorded IC50 with BACE1 (Homo sapiens (Human), UniProt P56817) for CNC(=O)[C@]12C[C@H]1[C@@](C)(c1cc(/C=C(\F)c3cnc(OCC(C)=O)cn3)ccc1F)N=C(N)S2 [Example 152] was 0.052

# CN(C)C(=O)[C@]12C[C@H]1[C@@](C)(c1cc(/C(F)=C/c3ccc(Cl)cn3)ccc1F)N=C(N)S2 [Example 185] with BACE1 (Homo sapiens (Human), UniProt P56817): IC50 is 0.132

The reported BACE1 (Homo sapiens (Human), UniProt P56817) IC50 of CNC(=O)[C@]12C[C@H]1[C@@](C)(c1cc(/C=C(\F)c3ccc(C#CC4CC4)cn3)ccc1F)N=C(N)S2 [Example 358] is 0.018

Per the reported BACE1 (Homo sapiens (Human), UniProt P56817) data, C[C@]1(c2cc(/C=C(\F)c3ccc(C#N)cn3)ccc2F)N=C(N)S[C@@]2(C#N)C[C@H]21 [Example 245] has IC50 of 0.005

* * *

Target Of Assay: BACE2 (Homo sapiens (Human), UniProt Q9Y5Z0)
Sequence (Q9Y5Z0 63-518): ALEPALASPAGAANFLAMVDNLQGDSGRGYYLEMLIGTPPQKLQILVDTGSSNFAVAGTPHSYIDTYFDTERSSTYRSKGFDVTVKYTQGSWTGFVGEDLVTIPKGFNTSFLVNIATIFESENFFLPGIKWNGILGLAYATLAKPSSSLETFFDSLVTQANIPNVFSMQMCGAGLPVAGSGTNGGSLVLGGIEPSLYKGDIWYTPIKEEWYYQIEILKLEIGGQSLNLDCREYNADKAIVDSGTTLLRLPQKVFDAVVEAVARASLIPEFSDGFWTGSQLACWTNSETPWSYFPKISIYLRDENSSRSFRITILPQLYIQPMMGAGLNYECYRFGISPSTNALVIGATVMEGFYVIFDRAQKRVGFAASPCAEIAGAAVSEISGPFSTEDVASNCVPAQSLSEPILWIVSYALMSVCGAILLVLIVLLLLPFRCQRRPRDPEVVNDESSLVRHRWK
Test Description: In vitro enzymatic BACE2 FRET assay
Format: biochemical
Protocol Conditions: read-out: IC50 IP (μM) BACE2 Enzyme
Measured Attribute: IC50 (µM)
Unit µM implied. Number only.

Answered examples (4):
C[C@]1(c2cc(/C=C(\F)c3ccc(C#N)cn3)ccc2F)N=C(N)S[C@@]2(C(=O)NC3CC3)C[C@H]21 :: 0.164
CC#CCOc1cnc(/C(F)=C/c2ccc(F)c([C@@]3(C)N=C(N)S[C@@]4(C(N)=O)C[C@H]43)c2)cn1 :: 0.115
CCCC#Cc1ccc(/C(F)=C/c2ccc(F)c([C@@]3(C)N=C(N)S[C@@]4(C(=O)NC)C[C@H]43)c2)nc1 :: 0.49
CNC(=O)[C@]12C[C@H]1[C@@](C)(c1cc(/C=C(\F)c3cnc(OCC(C)=O)cn3)ccc1F)N=C(N)S2 :: 1.51

Here is another compound to look at.
// field: IC50; key: CC(=O)COc1cnc(/C(F)=C/c2cnc(F)c([C@@]3(C)N=C(N)S[C@@]4(C(=O)N(C)C)C[C@H]43)c2)cn1 ; value = 0.294
